Documented minimum viability across a set of compounds
- assay-name: Vero E6 cell cytotoxicity, SAR follow-up, cytotoxicity control for West Nile virus antiviral project, synthesized analogs (AID 2244)
- condition-context: CellTiter-Glo luminescence, 72 h, hits give low values; at 40 µM unless noted
Results with a measured potency or affinity are listed apart. Calls of active or inactive are those of the source.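 The calls were made as follows: active = viability below 70% at one or more tested concentrations; inactive = viability above 70% at every concentration.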

Known results for compounds:
# compound, minimum viability
measured = [
    ("O=c1c2cc([N+](=O)[O-])ccc2nc2n1CCC2", "78.7% (inactive)"),
    ("COc1cccc(-n2c(SCC(=O)Nc3ccc4c(c3)CCC4)nc3ccccc3c2=O)c1", "74.6% (inactive)"),
    ("O=c1c2c(F)cccc2nc2n1CCC2", "80.3% [at 2.5 µM] (inactive)"),
    ("O=c1c2cccc(Cl)c2nc2n1CCC2", "79.7% [at 5 µM] (inactive)"),
]

Look up minimum viability: CC1CC(C)CN(C(=O)CSc2nc3ccccc3c(=O)n2-c2ccc(F)cc2)C1 (configuration not stated)
74.6% (inactive)

Look up minimum viability: CCOC(=O)C1(Cc2ccccc2C(F)(F)F)CCN(C2CCN(C(C)=O)CC2)CC1
87% [at 80 µM] (inactive)
